# SYSTEM TESTED: androgen receptor (AR) (Homo sapiens, UniProt P10275)
# Sequence (P10275 whole entry): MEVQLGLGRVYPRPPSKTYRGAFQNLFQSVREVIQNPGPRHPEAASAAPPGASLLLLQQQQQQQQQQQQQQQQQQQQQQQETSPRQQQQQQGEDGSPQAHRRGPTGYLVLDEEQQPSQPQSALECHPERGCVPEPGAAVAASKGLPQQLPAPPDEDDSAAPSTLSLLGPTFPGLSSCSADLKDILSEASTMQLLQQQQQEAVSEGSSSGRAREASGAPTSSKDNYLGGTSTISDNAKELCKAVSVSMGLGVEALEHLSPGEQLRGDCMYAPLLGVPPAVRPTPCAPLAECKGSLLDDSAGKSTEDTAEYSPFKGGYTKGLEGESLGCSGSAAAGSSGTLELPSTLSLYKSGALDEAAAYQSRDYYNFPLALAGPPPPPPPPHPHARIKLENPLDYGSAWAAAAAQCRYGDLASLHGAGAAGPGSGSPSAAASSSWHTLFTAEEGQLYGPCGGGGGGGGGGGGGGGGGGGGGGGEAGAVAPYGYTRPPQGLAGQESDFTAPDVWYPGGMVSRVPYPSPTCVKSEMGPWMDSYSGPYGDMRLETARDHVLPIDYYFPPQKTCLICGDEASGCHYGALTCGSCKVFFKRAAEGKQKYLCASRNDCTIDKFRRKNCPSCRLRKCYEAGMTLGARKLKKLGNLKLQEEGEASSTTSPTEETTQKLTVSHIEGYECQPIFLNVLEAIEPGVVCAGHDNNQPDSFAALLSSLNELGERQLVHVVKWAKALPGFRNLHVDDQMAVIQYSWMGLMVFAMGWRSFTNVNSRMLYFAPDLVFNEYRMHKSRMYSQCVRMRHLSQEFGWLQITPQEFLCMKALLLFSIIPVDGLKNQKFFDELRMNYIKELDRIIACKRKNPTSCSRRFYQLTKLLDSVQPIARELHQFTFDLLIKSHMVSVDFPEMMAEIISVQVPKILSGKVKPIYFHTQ
# EXPERIMENT DESCRIPTION: Degradation of androgen receptor (AR) protein in VCaP cells by ELISA
# Format: cell-based
For each of the molecules below, state its DC50.

In: Name the recorded DC50 for N#Cc1ccc(O[C@H]2CC[C@H](NC(=O)c3ccc(N4CCC(CN5CC6(C5)CN(c5ccc7c(c5)C(=O)N(C5CCC(=O)NC5=O)C7=O)C6)CC4)nn3)CC2)cc1Cl (some centres unmarked) [Compound 121] .
Out: < 10 nM

In: Also N#Cc1ccc(O[C@H]2CC[C@H](NC(=O)c3ccc(N4C[C@H]5CC[C@@H](C4)N5C[C@H]4[C@@H]5CN(c6cc7c(cc6F)C(=O)N(C6CCC(=O)NC6=O)C7=O)C[C@@H]54)nn3)CC2)cc1Cl (some centres unmarked) [Compound 239] , if possible.
Out: 10 to 100 nM

In: Also N#Cc1ccc(O[C@H]2CC[C@H](NC(=O)c3nc(N4CCC(CN5CCC6(CC5)CN(c5ccc7c(c5)C(=O)N(C5CCC(=O)NC5=O)C7=O)C6)CC4)no3)CC2)cc1Cl (some centres unmarked) [Compound 413] , if possible.
Out: < 10 nM

In: Also Cc1cc(O[C@H]2C(C)(C)[C@H](N3Cc4nc(C#C[C@H]5CC[C@H](N6CCN(c7ccc8c(c7)C(=O)N(C7CCC(=O)NC7=O)C8=O)CC6)CC5)ccc4C3=O)C2(C)C)ccc1C#N (some centres unmarked) [Compound 402] , if possible.
Out: < 10 nM

In: Also N#Cc1ccc(O[C@H]2CC[C@H](NC(=O)c3ccc(N4CCC(CN5CCC6(CC5)CN(c5cc7c(cc5F)C(=O)N(C5CCC(=O)NC5=O)C7=O)C6)CC4)nn3)CC2)cc1C(F)(F)F (some centres unmarked) [Compound 152] , if possible.
Out: 10 to 100 nM

###

# SYSTEM TESTED: UniProt P10275
# EXPERIMENT DESCRIPTION: Degradation of androgen receptor (AR) protein in VCaP cells by ELISA
# Format: cell-based
# CONDITION DETAILS: AR degradation, VCaP cells, 16 h, ELISA, Table 3-1; read-out: DC50
For each of the molecules below, state its DC50.

In: Name the recorded DC50 for N#Cc1ccc(O[C@H]2CC[C@H](NC(=O)c3cnc(N4CCC(CN5CCC6(C5)CN(c5ccc7c(c5)C(=O)N(C5CCC(=O)NC5=O)C7=O)C6)CC4)cn3)CC2)cc1Cl (stereo partly drawn) .
Out: < 10 nM

In: Also N#Cc1ccc(O[C@H]2CC[C@H](NC(=O)c3ccc(N4CC5(CN(CC6CCN(c7cc8c(cc7F)C(=O)N(C7CCC(=O)NC7=O)C8=O)CC6)C5)C4)nn3)CC2)cc1Cl (stereo partly drawn) , if possible.
Out: < 10 nM

In: Also N#Cc1ccc(O[C@H]2CC[C@H](NC(=O)c3ccc(N4CCC(N5CCC6(CC5)CN(c5ccc7c(c5)C(=O)N(C5CCC(=O)NC5=O)C7=O)C6)CC4)nn3)CC2)cc1Cl (stereo partly drawn) , if possible.
Out: < 10 nM

###

# SYSTEM TESTED: UniProt P10275
# EXPERIMENT DESCRIPTION: Degradation of androgen receptor (AR) protein in VCaP cells by ELISA
# Assay type: cell-based
# CONDITION DETAILS: AR degradation, VCaP cells, 16 h, ELISA, Table 3-2; read-out: DC50
ENDPOINT LABEL: DC50

In: Name the recorded DC50 for COc1cc(O[C@H]2C(C)(C)[C@H](N3Cc4nc(C#C[C@H]5C[C@H](N6CCN(c7ccc8c(c7)C(=O)N(C7CCC(=O)NC7=O)C8=O)CC6)C5)ccc4C3=O)C2(C)C)ccc1C#N (stereo partly drawn) .
Out: 10 to 100 nM

In: Also Cc1cc(O[C@H]2C(C)(C)[C@H](N3Cc4nc(C#C[C@H]5CC[C@H](N6CCN(c7cc8c(cc7F)C(=O)N(C7CCC(=O)NC7=O)C8=O)CC6)CC5)ccc4C3=O)C2(C)C)ccc1C#N (stereo partly drawn) , if possible.
Out: 10 to 100 nM

In: Also COc1cc(O[C@H]2C(C)(C)[C@H](N3Cc4nc(C#C[C@H]5C[C@H](N6CCN(c7cc8c(cc7F)C(=O)N(C7CCC(=O)NC7=O)C8=O)CC6)C5)ccc4C3=O)C2(C)C)ccc1C#N (stereo partly drawn) , if possible.
Out: 10 to 100 nM

###

# SYSTEM TESTED: androgen receptor (AR) (Homo sapiens)
# EXPERIMENT DESCRIPTION: Degradation of androgen receptor (AR) protein in VCaP cells by ELISA
# Assay type: cell-based
# CONDITION DETAILS: AR degradation, VCaP cells, 16 h, ELISA, Table 3-1; read-out: DC50
ENDPOINT LABEL: DC50

In: Name the recorded DC50 for N#Cc1ccc(O[C@H]2CC[C@H](NC(=O)c3cn([C@H]4CC[C@H](CN5CCC6(CC5)CN(c5ccc7c(c5)C(=O)N(C5CCC(=O)NC5=O)C7=O)C6)CC4)nn3)CC2)cc1Cl (stereo partly shown) [Compound 114] .
Out: < 10 nM

In: Also N#Cc1ccc(O[C@H]2CC[C@H](NC(=O)c3ccc(N4CCCN(C[C@@H]5[C@H]6CN(c7cc8c(cc7F)C(=O)N(C7CCC(=O)NC7=O)C8=O)C[C@@H]56)CC4)nn3)CC2)cc1Cl (stereo partly shown) [Compound 93] , if possible.
Out: 10 to 100 nM

In: Also N#Cc1ccc(O[C@H]2CC[C@H](NC(=O)c3ccc(N4CCC(CN5CCC(Oc6ccc7c(c6)C(=O)N(C6CCC(=O)NC6=O)C7=O)CC5)CC4)nn3)CC2)cc1Cl (stereo partly shown) [Compound 147] , if possible.
Out: 10 to 100 nM

In: Also N#Cc1ccc(O[C@H]2CC[C@H](NC(=O)c3cnc(N4CC5(CCN(C6CCN(c7cc8c(cc7F)C(=O)N(C7CCC(=O)NC7=O)C8=O)CC6)CC5)C4)cn3)CC2)cc1Cl (stereo partly shown) [Compound 242] , if possible.
Out: < 10 nM

In: Also CC1(C)[C@H](Oc2ccc(C#N)c(Cl)c2)C(C)(C)[C@H]1N1Cc2nc(C#C[C@H]3CC[C@H](N4CCN(c5ccc6c(c5)C(=O)N(C5CCC(=O)NC5=O)C6=O)CC4)CC3)cnc2C1=O (stereo partly shown) [Compound 381] , if possible.
Out: 10 to 100 nM

In: Also N#Cc1ccc(O[C@H]2CC[C@H](NC(=O)c3cnc(N4CCC(CN5CC6(CCN(c7cc8c(cc7F)C(=O)N(C7CCC(=O)NC7=O)C8=O)C6)C5)CC4)cn3)CC2)cc1Cl (stereo partly shown) [Compound 188] , if possible.
Out: < 10 nM

In: Also N#Cc1ccc(O[C@H]2CC[C@H](NC(=O)c3ccc(N4CCN(C[C@@H]5[C@H]6CN(c7cc8c(cc7F)C(=O)N(C7CCC(=O)NC7=O)C8=O)C[C@@H]56)CC4)cn3)CC2)cc1Cl (stereo partly shown) [Compound 286] , if possible.
Out: 10 to 100 nM

In: Also N#Cc1ccc(O[C@H]2CC[C@H](NC(=O)c3cnc(N4CC5CN(CC6CCN(c7cc8c(cc7F)C(=O)N(C7CCC(=O)NC7=O)C8=O)CC6)CC5C4)nc3)CC2)cc1Cl (stereo partly shown) [Compound 272] , if possible.
Out: < 10 nM

In: Also N#Cc1ccc(O[C@H]2CC[C@H](NC(=O)c3ccc(N4CCC(CN5CCC6(CC5)CN(c5cc7c(cc5F)C(=O)N(C5CCC(=O)NC5=O)C7=O)C6)CC4)nn3)CC2)cc1 (stereo partly shown) [Compound 132] , if possible.
Out: 10 to 100 nM

In: Also N#Cc1ccc(O[C@H]2CC[C@H](NC(=O)c3cnc(N4CCC(N5CC6(CCN(c7cc8c(cc7F)C(=O)N(C7CCC(=O)NC7=O)C8=O)CC6)C5)CC4)cn3)CC2)cc1C(F)(F)F (stereo partly shown) [Compound 236] , if possible.
Out: < 10 nM

In: Also N#Cc1ccc(O[C@H]2CC[C@H](NC(=O)c3ccc(N4CCN(C[C@@H]5[C@H]6CN(c7cc8c(cc7F)C(=O)N(C7CCC(=O)NC7=O)C8=O)C[C@@H]56)CC4)nn3)CC2)cc1Br (stereo partly shown) [Compound 126] , if possible.
Out: < 10 nM

In: Also N#Cc1ccc(O[C@H]2CC[C@H](NC(=O)c3ccc(N4CC5(CCN(C6CCN(c7cc8c(cc7F)C(=O)N(C7CCC(=O)NC7=O)C8=O)CC6)C5)C4)nn3)CC2)cc1Cl (stereo partly shown) [Compound 81] , if possible.
Out: < 10 nM

In: Also CC1(C)[C@H](Oc2ccc(C#N)c(Cl)c2)C(C)(C)[C@H]1N1Cc2nc(C#CC3CCC(N4CCC5(CCN(c6ccc7c(c6)C(=O)N(C6CCC(=O)NC6=O)C7=O)C5)C4)CC3)ccc2C1=O (stereo partly shown) [Compound 365] , if possible.
Out: 10 to 100 nM

In: Also N#Cc1ccc(O[C@H]2CC[C@H](NC(=O)c3ccc(N4CCC5(CCN(CC6CCN(c7ccc8c(c7)C(=O)N(C7CCC(=O)NC7=O)C8=O)CC6)CC5)CC4)nn3)CC2)cc1Cl (stereo partly shown) [Compound 262] , if possible.
Out: < 10 nM

In: Also CC1(C)[C@H](Oc2ccc(C#N)c(Cl)c2)C(C)(C)[C@H]1N1Cc2nc(C#CC3CC(N4CC5CN(c6ccc7c(c6)C(=O)N(C6CCC(=O)NC6=O)C7=O)CC5C4)C3)ccc2C1=O (stereo partly shown) [Compound 359] , if possible.
Out: 10 to 100 nM

In: Also CC1(C)[C@H](Oc2ccc(C#N)c(Cl)c2)C(C)(C)[C@H]1N1Cc2nc(C#CC3CCC(N4CC5CC4CN5c4cc5c(cc4F)C(=O)N(C4CCC(=O)NC4=O)C5=O)CC3)ccc2C1=O (stereo partly shown) [Compound 343] , if possible.
Out: > 300 nM

In: Also CC1(C)[C@H](Oc2ccc(C#N)c(Cl)c2)C(C)(C)[C@H]1N1Cc2nc(N3CCC(CN4CCN(c5cc6c(cc5F)C(=O)N(C5CCC(=O)NC5=O)C6=O)CC4)CC3)ncc2C1=O (stereo partly shown) [Compound 382] , if possible.
Out: 10 to 100 nM

In: Also N#Cc1ccc(O[C@H]2CC[C@H](NC(=O)c3ccc(N4CCC(CN5CCC6(CC5)CN(c5ccc7c(=O)n(C8CCC(=O)NC8=O)cnc7c5)C6)CC4)nn3)CC2)cc1Cl (stereo partly shown) [Compound 247] , if possible.
Out: < 10 nM

In: Also CC1(C)[C@H](Oc2ccc(C#N)c(Cl)c2)C(C)(C)[C@H]1N1Cc2nc(C#CC3CCC(N4CCC5(CC4)CN(c4ccc6c(c4)C(=O)N(C4CCC(=O)NC4=O)C6=O)C5)CC3)ccc2C1=O (stereo partly shown) [Compound 362] , if possible.
Out: < 10 nM
